# credit: ChEMBL document CHEMBL3621166

Listing of entries alongside the reported pIC50.
Test system: HCT-116
Assay: Cytotoxicity against human HCT116 cells assessed as cell viability after 48 hrs by MTT assay
Assay type: functional, cell-based
Details: HCT-116, 48 h
// field semantics: pIC50 = negative decimal log of concentration (mol/L)

molecular_string: COC(=O)CC[C@@H](C)[C@H]1CC[C@H]2[C@@H]3CC[C@@H]4C[C@H](OC(=O)CN5CCNCC5)CC[C@]4(C)[C@H]3CC[C@]12C
pIC50: 3.99

molecular_string: COC(=O)CC[C@@H](C)[C@H]1CC[C@H]2[C@@H]3CC[C@@H]4C[C@H](OC(=O)C[N+]56CCN(CC5)CC6)CC[C@]4(C)[C@H]3CC[C@]12C.[Cl-]
pIC50: 4.22

molecular_string: COC(=O)CC[C@@H](C)[C@H]1CC[C@H]2[C@@H]3CC[C@@H]4C[C@H](OC(=O)C[n+]5ccccc5)CC[C@]4(C)[C@H]3CC[C@]12C.[Cl-]
pIC50: 4.58

molecular_string: COC(=O)CC[C@@H](C)[C@H]1CC[C@H]2[C@@H]3CC[C@@H]4C[C@H](OC(=O)C[N+](C)(C)C)CC[C@]4(C)[C@H]3CC[C@]12C.[Cl-]
pIC50: 4.42

molecular_string: COC(=O)CC[C@@H](C)[C@H]1CC[C@H]2[C@@H]3CC[C@@H]4C[C@H](OC(=O)CN5CCOCC5)CC[C@]4(C)[C@H]3CC[C@]12C.Cl
pIC50: 4.05

What pIC50 value was documented for this compound, C[C@H](CCC(=O)O)[C@H]1CC[C@H]2[C@@H]3CC[C@@H]4C[C@H](O)CC[C@]4(C)[C@H]3CC[C@]12C ?
4.09
